For each record, write down the corresponding Relative Activity (%).
- STUDY_SYSTEM: nNOS-II (Rattus norvegicus, UniProt P29476)
- Sequence (P29476 whole entry): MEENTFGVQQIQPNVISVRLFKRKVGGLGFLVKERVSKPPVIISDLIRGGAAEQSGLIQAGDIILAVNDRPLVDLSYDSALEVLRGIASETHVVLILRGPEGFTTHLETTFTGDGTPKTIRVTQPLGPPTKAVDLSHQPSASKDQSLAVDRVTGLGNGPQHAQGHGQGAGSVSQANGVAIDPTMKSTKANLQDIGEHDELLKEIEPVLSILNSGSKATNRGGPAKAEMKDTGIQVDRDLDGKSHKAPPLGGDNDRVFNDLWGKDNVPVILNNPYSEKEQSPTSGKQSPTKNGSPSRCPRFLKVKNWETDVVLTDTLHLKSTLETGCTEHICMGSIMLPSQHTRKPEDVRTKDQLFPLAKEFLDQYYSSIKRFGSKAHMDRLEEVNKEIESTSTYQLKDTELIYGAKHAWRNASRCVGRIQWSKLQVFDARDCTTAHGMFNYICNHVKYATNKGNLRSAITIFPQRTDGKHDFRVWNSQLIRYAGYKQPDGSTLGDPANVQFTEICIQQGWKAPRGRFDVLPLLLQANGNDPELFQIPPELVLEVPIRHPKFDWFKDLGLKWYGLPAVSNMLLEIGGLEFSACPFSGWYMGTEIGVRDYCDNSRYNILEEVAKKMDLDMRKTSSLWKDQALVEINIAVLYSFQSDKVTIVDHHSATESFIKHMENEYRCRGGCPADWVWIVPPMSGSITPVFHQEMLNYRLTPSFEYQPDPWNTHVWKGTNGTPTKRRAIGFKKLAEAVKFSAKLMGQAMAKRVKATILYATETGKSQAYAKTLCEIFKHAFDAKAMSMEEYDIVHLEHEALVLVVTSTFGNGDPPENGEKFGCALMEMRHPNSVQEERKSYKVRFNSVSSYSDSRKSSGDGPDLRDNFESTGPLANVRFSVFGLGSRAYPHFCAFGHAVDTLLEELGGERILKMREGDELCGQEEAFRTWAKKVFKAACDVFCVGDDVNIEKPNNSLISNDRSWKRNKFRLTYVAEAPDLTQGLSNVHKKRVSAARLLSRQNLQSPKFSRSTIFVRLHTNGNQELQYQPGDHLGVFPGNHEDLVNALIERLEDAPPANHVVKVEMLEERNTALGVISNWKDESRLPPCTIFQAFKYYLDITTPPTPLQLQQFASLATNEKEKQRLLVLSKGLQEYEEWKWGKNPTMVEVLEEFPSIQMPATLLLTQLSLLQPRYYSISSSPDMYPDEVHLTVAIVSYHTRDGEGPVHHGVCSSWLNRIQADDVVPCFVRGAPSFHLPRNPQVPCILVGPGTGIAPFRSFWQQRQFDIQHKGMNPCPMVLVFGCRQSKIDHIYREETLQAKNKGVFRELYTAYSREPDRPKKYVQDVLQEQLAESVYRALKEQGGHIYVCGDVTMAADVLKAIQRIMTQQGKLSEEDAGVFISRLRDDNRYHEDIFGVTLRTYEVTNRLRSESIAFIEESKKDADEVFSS
- EXPERIMENT: Standard NOS enzyme assay (oxyhemoglobin to methemoglobin), peptides as substrates, initial velocity
- Assay type: biochemical
- EXPERIMENTAL_PARAMETERS: substrate 100 μM (poly-arginine 5 μg/ml); purified nNOS-II 0.2 μg; activity for arginine = 100%; means of three measurements
No end group written: not given here.
Numbers only, in %.

In [3]: df
Out[3]:
                                  substance                              study_system       observation_type  display_unit  endpoint_result
0                    KPPGFSPFR [[Lys^1]-BK]  nNOS-II (Rattus norvegicus, UniProt P29476)  Relative Activity (%)             %              113
1                  ISRPPGFSPFR [Ile-Ser-BK]  nNOS-II (Rattus norvegicus, UniProt P29476)  Relative Activity (%)             %              110
2                   PPGFSPFR [Des-Arg^1-BK]  nNOS-II (Rattus norvegicus, UniProt P29476)  Relative Activity (%)             %               94
3  Arg-Pro-Pro-Gly-Phe-Ser-Pro-Phe (APPGFSPF; rat) [Des-Arg^9-BK]  nNOS-II (Rattus norvegicus, UniProt P29476)  Relative Activity (%)             %              180
4                            RPPGFSPFR [BK]  nNOS-II (Rattus norvegicus, UniProt P29476)  Relative Activity (%)             %              125

Record Relative Activity (%) for all entries; do not skip any.
1. Arg-Pro-Pro-Gly-Phe (RPPGF; rat) [BK fragment 1-5]
2. PPGFSP [BK fragment 2-7]
3. RPPGFSP [BK fragment 1-7]

Result:
61
0
80

Reference source for all entries: patent US6988446B2
